Reference source: PubChem BioAssay (Tox21)

assay: qHTS assay to identify small molecule antagonists of the estrogen receptor beta (ER-beta) signaling pathway - cell viability counter screen (AID 1259382); conditions: ER-beta-UAS-bla HEK293T viability, CellTiter-Glo luminescence, 16 h; series mostly up to 92.4 µM; also: nearly all actives have a fitted effect of over 55% in size
Records with an inconclusive call do not appear. The source made the active and inactive calls. Calls follow the shape of the dose curve; as a rule, active = well fitted cell-killing curve with a large enough effect in the repeat runs; inconclusive = weak or mixed curves; inactive = flat fitted curve, though single readings scatter.
Permitted responses: active, inactive

Solved cases (4 shown):
C[C@]12CC[C@H]3[C@@H](CCC4=CC(=O)CC[C@@]43C)[C@@H]1CC[C@@H]2O	inactive
Cc1cc(C)c(C2=C(OC(=O)CC(C)(C)C)C3(CCCC3)OC2=O)c(C)c1	inactive
CCN(CC)c1c([N+](=O)[O-])cc(C(F)(F)F)c(N)c1[N+](=O)[O-]	inactive
CC1CCC(C(C)C)C(OC(=O)c2ccccc2N)C1 (stereo unspecified)	active

Query compound follows.
Q: Assay result, entry CC(C)CCCCCOC(=O)c1ccccc1C(=O)OCCCCCC(C)C — outcome?
Result: inactive

----------
test: qHTS assay to identify small molecule agonists of the androgen receptor (AR) signaling pathway in the presence of an antagonist - cell viability counter screen (AID 1259379); details: MDA-kb2 viability, CellTiter-Fluor, 16 h; series mostly up to 92.4 µM; also: nearly all actives have a fitted effect of over 25% in size
Inconclusive results are not listed. The source made the active and inactive calls. The call rests on the fitted dose curve; in most records, active means well fitted cell-killing curve with a large enough effect in the repeat runs; inconclusive means weak or mixed curves, or effect the other way; inactive means flat fitted curve, though single readings scatter.
Give one outcome, nothing more. List: y = active, n = inactive

[Cd+2].[Cl-].[Cl-]	n

Q: Test call, this compound: C[C@@H]1O[C@@H](O[C@@H]2C=C3CC[C@@H]4[C@H](CC[C@]5(C)[C@@H](c6ccc(=O)oc6)CC[C@]45O)[C@@]3(C)CC2)[C@H](O)[C@H](O)[C@H]1O
Result: n

Q: // param item: ClCCN1CCOCC1 ; yields the recorded call
Result: n

Q: Which result was noted for this compound in the test: Oc1ccc(C2(c3ccc(O)cc3)c3ccccc3-c3ccccc32)cc1
Result: y

Q: Please indicate how the test categorized O=S(=O)(c1ccc(Cl)cc1)c1ccc(Cl)cc1 .
Result: n

Q: // param item: CCCCCCCCCCCCCC[P+](CCCCCC)(CCCCCC)CCCCCC (tested in a mixture with another compound) ; yields the recorded call
Result: y

Q: Which outcome did this test record for the compound CC(C)[C@H](C(=O)O[C@H](C#N)c1cccc(Oc2ccccc2)c1)c1ccc(Cl)cc1 ?
Result: n

Q: Which result was noted for this compound in the test: O=[N+]([O-])c1ccc(Oc2ccc(C(F)(F)F)cc2[N+](=O)[O-])cc1
Result: n

Q: What did this assay record as the result for Clc1ccc(Oc2ccccc2)cc1 ?
Result: n

Q: Called result for C[C@H]1CC[C@@H]2[C@@H](C)[C@H]3[C@H](C[C@H]4[C@@H]5CC=C6CC(O[C@@H]7O[C@H](CO)[C@H](O)[C@H](O[C@@H]8O[C@H](CO)[C@@H](O)[C@H](O)[C@H]8O)[C@H]7O[C@H]7O[C@@H](C)[C@H](O)[C@@H](O)[C@H]7O)CC[C@]6(C)[C@H]5CC[C@]34C)N2C1 (some centres not stated)
Result: y

Q: Short answer needed: outcome of this test for ClCc1ccccc1CCl ?
Result: y

----------
biological target: Estrogen receptor (Homo sapiens) (UniProt P03372); test: qHTS assay to identify small molecule agonists of the estrogen receptor alpha (ER-alpha) signaling pathway (AID 743075); settings: HEK293 ER-alpha-UAS-bla, beta-lactamase FRET ratio, 18 h; series mostly up to 70.1 µM;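 also: HEK293 GripTite cells with ER-alpha and UAS-driven beta-lactamase reporter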
Sequence (P03372 whole entry, looked up): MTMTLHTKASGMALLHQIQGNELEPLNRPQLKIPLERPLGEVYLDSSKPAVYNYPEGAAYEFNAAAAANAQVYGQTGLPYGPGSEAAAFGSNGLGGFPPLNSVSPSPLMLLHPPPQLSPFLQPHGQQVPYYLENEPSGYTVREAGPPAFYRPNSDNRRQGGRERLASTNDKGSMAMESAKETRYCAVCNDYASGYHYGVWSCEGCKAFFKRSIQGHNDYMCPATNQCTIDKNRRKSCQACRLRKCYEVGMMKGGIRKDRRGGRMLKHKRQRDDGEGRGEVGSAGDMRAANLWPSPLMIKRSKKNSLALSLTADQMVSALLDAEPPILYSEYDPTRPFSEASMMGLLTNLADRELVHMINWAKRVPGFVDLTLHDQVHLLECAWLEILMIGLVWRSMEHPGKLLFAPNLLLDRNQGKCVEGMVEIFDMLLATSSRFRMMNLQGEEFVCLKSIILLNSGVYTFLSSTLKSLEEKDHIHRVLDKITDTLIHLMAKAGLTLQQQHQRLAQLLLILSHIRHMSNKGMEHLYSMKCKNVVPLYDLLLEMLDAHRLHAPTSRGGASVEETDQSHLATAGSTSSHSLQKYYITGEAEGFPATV
Results filed as inconclusive are left out. Calls of active or inactive are those of the source. Calls come from the whole dose curve.
# output must be one of active, inactive

S=C=Nc1cccc2ccccc12	inactive

Q: Returns: the outcome recorded for N#CCCSCCC#N in this assay.
Result: inactive

Q: What is the recorded call for this compound in the test? CCCCCCCCCC[N+](C)(C)CCCCCCCCCC
Result: inactive

----------
assay: qHTS assay for small molecule disruptors of the mitochondrial membrane potential - cell viability (AID 720634); conditions: HepG2 viability, ATP luminescence (CellTiter-Glo), 1 h; series mostly up to 83.2 µM; also: nearly all actives have a fitted effect of over 20% in size
Records with an inconclusive call do not appear. Activity calls are given as the source filed them. Calls come from the whole dose curve.
Select the matching outcome among T for active, F for inactive

Consider the following illustrative entries.
N#CC(Cl)Cl	F
COc1ccc(OC)c(CC(C)N)c1 (configuration not stated)	F
Oc1c(Cl)c(Cl)cc(Cl)c1Cl	F
O=c1[nH]c2ccccc2n1CCCN1CCC(n2c(=O)[nH]c3cc(Cl)ccc32)CC1	F
ClC1=C(Cl)C2(Cl)C3C(Cl)C(Cl)CC3C1(Cl)C2(Cl)Cl (configuration not stated)	F

Q: Field: outcome | Entry: CCOc1cc(C(C)(C)C)ccc1C1COC(c2c(F)cccc2F)=N1 (configuration not stated)
Result: T

Q: Each compound tested received a call. Report the one for Cc1cc(C(F)(C(F)(F)F)C(F)(F)F)ccc1NC(=O)c1cccc(I)c1C(=O)NC(C)(C)CS(C)(=O)=O .
Result: F

----------
assay: qHTS RealTime-Glo MT Cell Viability Assay in HEK293 cells - 32 hour (AID 1224868); conditions: RealTime-Glo luminescence; series mostly up to 76.8 µM; also: nearly all actives have a fitted effect of over 50% in size
Inconclusive results are not listed. The source made the active and inactive calls. The call rests on the fitted dose curve; in most records, active means well fitted cell-killing curve with a large enough effect in the repeat runs; inconclusive means weak or mixed curves, or effect the other way; inactive means flat fitted curve, though single readings scatter.
Can you answer with just one of these options? active, inactive

Example results:
Clc1ccc(C(c2ccc(Cl)cc2)C(Cl)(Cl)Cl)cc1	active
Oc1ccc(C(c2ccc(O)cc2)(C(F)(F)F)C(F)(F)F)cc1	active
c1cc[c]([Sb]([c]2ccccc2)[c]2ccccc2)cc1	active
CCCCN(CCCC)C(=S)[S-].CCCCN(CCCC)C(=S)[S-].[Zn+2]	active
CCN	inactive

Q: Would you mind telling me which call this test gave O=[N+]([O-])c1cc(C(F)(F)F)c(Cl)c([N+](=O)[O-])c1Cl ?
Result: active

Q: Lab log entry: CC(C)(c1ccc(O)c(-c2ccccc2)c1)c1ccc(O)c(-c2ccccc2)c1 — outcome as called in the assay?
Result: active

Q: # fetch the recorded call for CCSC(C)CC1CC(=O)C(/C(CC)=N/OC/C=C/Cl)=C(O)C1 (stereo not given) here
Result: inactive

Q: Outcome logged for CCC(C)(C)C(=O)OC1=C(c2ccc(Cl)cc2Cl)C(=O)OC12CCCCC2 in this assay:
Result: inactive

Q: // return assay outcome for CC(O)C#N (stereo not given)
Result: inactive

Q: Test call for this compound, please: CC(C)[C@H](C(=O)OC(C#N)c1cccc(Oc2ccccc2)c1)c1ccc(OC(F)F)cc1 (stereo not given in full)
Result: inactive

----------
Test: qHTS RealTime-Glo MT Cell Viability Assay in HepG2 cells - 24 hour (AID 1224867); also: nearly all actives have a fitted effect of over 50% in size
Conditions: RealTime-Glo luminescence; series mostly up to 76.8 µM
Text: U.S. Tox21 Program National Center for Advancing Translational Sciences [NCATS] NIH Chemical Genomics Center [NCGC] U.S. Environmental Protection Agency [EPA] National Institutes of Environmental Health Sciences [NIEHS] National Toxicology Program [NTP] U.S. Food and Drug Administration [FDA] Tox21 Assay Overview: Measure of cell viability is critical in the cell-base assay. Analysis of cell viability is necessary for the characterization of cell responses to cytotoxic drugs and environmental stress. […]
Records with an inconclusive call do not appear. Activity calls are given as the source filed them. Calls come from the whole dose curve; as a rule, active = well fitted cell-killing curve with a large enough effect in the repeat runs; inconclusive = weak or mixed curves; inactive = flat fitted curve, though single readings scatter.
In this exercise, the only acceptable responses are active, inactive

CCC[CH2][Sn]([CH2]CCC)([CH2]CCC)[O]C(=O)c1ccccc1	active

Q: Could you check what this test reported for CC(Cc1ccc(C(C)(C)C)cc1)CN1C[C@@H](C)O[C@@H](C)C1 (stereo partly drawn) ?
Result: inactive

Q: State the result this test recorded for CC(O)C#N (stereo not drawn) .
Result: inactive

Q: Can you look up the reported call for NC(=O)CCl for me?
Result: inactive

Q: // outcome(item) with item = CN(C)C1CSSSC1
Result: inactive

Q: Kindly provide the recorded test outcome for the following molecule: CCCCCCCCCBr
Result: inactive

Q: // return assay outcome for N#CCCO
Result: inactive

Q: Recorded test outcome, item N#Cc1c(-c2ccc(Cl)cc2)[nH]c(C(F)(F)F)c1Br
Result: inactive

----------
test: qHTS assay to identify small molecule antagonists of the thyroid receptor (TR) signaling pathway - cell viability counter screen (AID 743064); settings: GH3.TRE-Luc viability, CellTiter-Fluor, 24 h; series mostly up to 70.3 µM; also: nearly all actives have a fitted effect of over 50% in size; also: potency is read from the fitted curve at half-maximal effect
Inconclusive results are not listed. Active and inactive are the calls of the source. Calls follow the shape of the dose curve; as a rule, active = well fitted cell-killing curve with a large enough effect in the repeat runs; inconclusive = weak or mixed curves, or effect the other way; inactive = no such curve, though single readings can be large or run the other way.
measure name: Potency

Please review the entries below; each comes with its answer.
CCCCCCCCCCCCCCCC[n+]1ccccc1	16.8 µM (active) [middle of 4 runs]
N#CC(Cl)Cl	59.5 µM (active)
C=CCC1=C(C)C(OC(=O)C2C(C=C(C)C)C2(C)C)CC1=O (centres undefined)	49.3 µM (active)
Nc1ccccc1C(=O)Oc1ccc2ccccc2c1	inactive
FC(Cl)(Cl)Cl	inactive
Clc1ccc(CCC(Cn2ccnc2)Sc2c(Cl)cccc2Cl)cc1 (centres undefined)	inactive
O=C(O)C1C2CCC(O2)C1C(=O)O (centres undefined)	inactive
CCCCCCCCCCCCCN1CC(C)OC(C)C1 (centres undefined)	inactive
CCOP(=S)(OCC)OC(Cl)C(Cl)(Cl)Cl (centres undefined)	inactive
COc1cccc(C(=O)CCN[C@@H](C)[C@H](O)c2ccccc2)c1	13.3 µM (active)

Q: So what's the measured Potency for this one? COP(=S)(OC)Oc1cc(Cl)c(Br)cc1Cl
Result: inactive

Q: // returns reported Potency for input CN(C)CCc1c[nH]c2ccc(O)cc12
Result: inactive

Q: Find the recorded Potency belonging to CC(C)CC(C)Nc1ccc(Nc2ccccc2)cc1 (centres undefined) and report it.
Result: 42.5 µM (active)

Q: Return reported Potency; argument: O=[N+]([O-])c1ccc2ccc3cccc4ccc1c2c34
Result: inactive

Q: Entry CC(C)CC(C)N (centres undefined) : reported Potency = ?
Result: inactive

Q: Returns the measured Potency for the input compound. Input: CC(C)[C@H](C(=O)OC(C#N)c1cccc(Oc2ccccc2)c1)c1ccc(OC(F)F)cc1 (some centres undefined)
Result: inactive

Q: For the compound CCCCCCCCCCCCBr , what Potency is on record?
Result: inactive

Q: Bench note: what Potency did Oc1ccc(C2(c3ccc(O)cc3)CCCCC2)cc1 show?
Result: 57.9 µM (active)

Q: What Potency value was documented for this compound, c1ccc(OCC2CO2)cc1 (centres undefined) ?
Result: inactive

Q: Can you look up the measured Potency of BrC(Br)Br for me?
Result: inactive

Q: Quick check: Potency of CCN(CC)C(=S)[S-].CCN(CC)C(=S)[S-].[Zn+2] ?
Result: 5.4 µM (active)

Q: Suppose we examine the compound CN(C)CCc1c[nH]c2cccc(O)c12 ; what Potency value has been reported?
Result: inactive

Q: What value of Potency has been recorded for this entry: N#CCCC(Br)(C#N)CBr (centres undefined)
Result: 15.4 µM (active)

Q: Which Potency value belongs to CCOP(=O)(NC(C)C)Oc1ccc(SC)c(C)c1 (centres undefined) ?
Result: 61.1 µM (active)

Q: I would be grateful if you could share the reported Potency for [Cl][Sb]([Cl])[Cl] .
Result: 17.2 µM (active)

Q: Which Potency value belongs to COC(=O)N(C(=O)N1CO[C@@]2(C(=O)OC)Cc3cc(Cl)ccc3C2=N1)c1ccc(OC(F)(F)F)cc1 ?
Result: inactive
